Target: AXL (human catalytic domain) (Homo sapiens, UniProt P30530)
Construct: purchased Upstate Ltd. 14-512
Sequence (P30530 473-894): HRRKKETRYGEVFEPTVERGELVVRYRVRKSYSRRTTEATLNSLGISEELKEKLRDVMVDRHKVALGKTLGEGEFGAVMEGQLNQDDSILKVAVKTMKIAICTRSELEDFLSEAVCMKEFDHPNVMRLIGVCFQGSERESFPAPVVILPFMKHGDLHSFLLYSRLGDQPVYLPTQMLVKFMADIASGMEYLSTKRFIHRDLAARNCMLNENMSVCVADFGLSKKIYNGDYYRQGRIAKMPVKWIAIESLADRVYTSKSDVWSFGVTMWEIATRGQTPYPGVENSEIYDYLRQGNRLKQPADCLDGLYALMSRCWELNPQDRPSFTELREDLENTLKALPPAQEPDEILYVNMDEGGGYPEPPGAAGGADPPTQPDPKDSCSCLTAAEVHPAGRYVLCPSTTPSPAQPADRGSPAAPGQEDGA
Assay: AXL (human catalytic domain) Enzyme Activity Assay (IMAP fluorescence polarisation)
Format: biochemical
Details: first data set; recombinant AXL isoform 1 aa473-894, 150 μM ATP
Protocol: Biological Methods AXL (human catalytic domain) Enzyme Activity Assay Reagents Kinase Assay Reaction Buffer: This consisted of 20 mM HEPES pH 7.0, 10 mM MgCl2, 1 mM DTT, […], 0.01% Triton X100 (v/v), and 0.01% BSA (w/v). All buffer components were purchased from Sigma-Aldrich at reagent grade or higher. […] ATP: Supplied by Sigma (product code A-7699). […] Final ATP concentration in the assay was 150 μM; this concentration represents the KM.ATP for this enzyme calculated in this assay. […]
QUANTITY: IC50

| COMPOUND | RECORDED VALUE |
| --- | --- |
| COc1ccc(-c2cccc3nc(Nc4ccc(N)cc4)nn23)cc1 [XX-007] | < 1000 nM |
| O=C(Nc1nc2cccc(-c3cccc(C(F)(F)F)c3)n2n1)C1CC1 [WW-033] | 1000 to 10000 nM |
| c1cc(-c2ccc3occc3c2)n2nc(Nc3ccc(N4CCNCC4)cc3)nc2c1 [XX-058] | < 1000 nM |
| O=C(Nc1nc2cccc(-c3ccc4c(c3)OCO4)n2n1)C1CC1 [WW-049] | < 1000 nM |
| COc1ccc(-c2cccc3nc(Nc4ccc(OCCn5ccnc5)cc4)nn23)cc1 [XX-016] | < 1000 nM |
| COc1ccc(-c2cccc3nc(Nc4ccc(OCCNc5ccncc5)cc4)nn23)cc1 [XX-028] | < 1000 nM |
| COc1ccc(-c2cccc3nc(Nc4ccc(OCCN)cc4)nn23)cc1 [XX-046] | < 1000 nM |
| CNc1ccc(-c2cccc3nc(NC(=O)C4CC4)nn23)cc1 [WW-120] | 1000 to 10000 nM |
| CC(Nc1cccc2nc(NC(=O)C3CC3)nn12)c1ccccc1 (stereo not drawn) [WW-113] | 1000 to 10000 nM |
